Values from the supplement of paper PMC7125110

Each item that follows carries a reported self-cleavage kobs at 40 uM GlcN6P.
B1: glmS ribozyme (parent)
chain: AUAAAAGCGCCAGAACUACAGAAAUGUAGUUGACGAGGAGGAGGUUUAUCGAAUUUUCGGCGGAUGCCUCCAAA

- Variants of: B1
- protocol description: self-cleavage kobs at 40 uM GlcN6P; higher = faster cleavage; RNA array
- measurement parameters: with glucosamine-6-phosphate
Variants at the floor of the assay were thinned out.

Some solved cases for reference:
{"sequence text": "AUAAAAUCGCCAGAACUACAGAAAUGUAGUUGACGAGGAGGUGGUUUAUCGAAUUUUCGGCGGAUGCCUCCAAA [G7U A42U]", "self-cleavage kobs at 40 uM GlcN6P": "< 1e-05 s⁻¹"}
{"sequence text": "AUAAACGCGCCAAAACUACAGAAAUGUAGUUGACGAGGAGGAGGUUUAUCGCAUUUUCGGCGGAUGCCUCCAAA [A6C G13A A52C]", "self-cleavage kobs at 40 uM GlcN6P": "< 1e-05 s⁻¹"}
{"sequence text": "AUAAAAGCGCCAGAACUACAGAAAUGUAGUUGACGAGAAGGAGGUUUAUCGAAUUUUAGGCGGAUACCUCCAAA [G38A C58A G66A]", "self-cleavage kobs at 40 uM GlcN6P": "< 1e-05 s⁻¹"}
{"sequence text": "AUAAAAGCGCCAGAACUACAGAAAUGUAGUUGACGAGGCGGAGGUUUAUCGAAUGUUCGGCGGAUGCCUCCAAA [A39C U55G]", "self-cleavage kobs at 40 uM GlcN6P": "0.000197 s⁻¹"}
{"sequence text": "AUAAAAGCACCAACACUACAGAAAUGUAGUUGACGAGGAGGAGGUUUAUCGAAUUUUCGGAGGAUGCCUCCAAA [G9A G13A A14C C61A]", "self-cleavage kobs at 40 uM GlcN6P": "< 1e-05 s⁻¹"}

IN: Could you share which self-cleavage kobs at 40 uM GlcN6P value was measured for AUAAAAGCGUCAGAACUACAGAAAUGUAGUUGACUAGGAGGAGGUUUAUCGAAUUUUCGGCGGAUGUCUCCAAA [C10U G35U C67U] ?
OUT: < 1e-05 s⁻¹

IN: So what's the measured self-cleavage kobs at 40 uM GlcN6P for this one? AUAAAAGCGCCAGAACUACAGAAAUGUAGUUGACGAGUAGGAGGUUUAUCGCAUUUUCGGAGGAUGCCUCCAAA [G38U A52C C61A]
OUT: < 1e-05 s⁻¹

IN: // lookup self-cleavage kobs at 40 uM GlcN6P for AUAAAAGCGCCAGGACUACAGAAAUGUAGUUGACGAGGAGUAGGUUUAUCGAAUUUUCGGCGGAUGCCUCCAAA [A14G G41U]
OUT: 0.00033 s⁻¹

IN: # input variant: AUAAAAGCGCCAGAACUACAGAAAUGUAGUUGUCGAGGAAGAGGUUUAUCGAAUUUUCGGCCGAUGCCUCCAAA [A33U G40A G62C] ; wanted: its self-cleavage kobs at 40 uM GlcN6P
OUT: < 1e-05 s⁻¹

IN: Recorded self-cleavage kobs at 40 uM GlcN6P of AUAAAAGCGUCAGAACUACAGAAAUGUAAUUGACGAGGAGGAGGUUUAUCGAAUUUUCGGCGGAUGCCUCCAAA [C10U G29A] , please.
OUT: < 1e-05 s⁻¹
